Sourced from the supplement of paper PMC8975748

Here the recorded z-score of subpopulation abundance is given for each entry.
Tested on: Saccharomyces cerevisiae BY4741 SeMeCo community
assay overview: z-score of subpopulation abundance vs DMSO median, subpopulation auxotrophic for HLUM; higher = larger share of this subpopulation than in DMSO controls
experimental setup: 10 µM; 24 h; SM minimal medium; subpopulation (auxotrophy): HLUM
Counter-ions that a name gives are not always drawn.
Field format: numeric only.

compound	z-score of subpopulation abundance
COC(=O)Nc1nc2cc(Sc3ccccc3)ccc2[nH]1 [Fenbendazole]	-0.28
Cc1cnc(NC(=O)C2=C(O)c3ccccc3S(=O)(=O)N2C)s1 [Meloxicam]	-0.98
OCCN1CCN(CC/C=C2/c3ccccc3Sc3ccc(C(F)(F)F)cc32)CC1 [Flupenthixol dihydrochloride]	-0.47
CCOC(=O)C1=C(COCCN)NC(C)=C(C(=O)OC)[C@@H]1c1ccccc1Cl [Levamlodipine]	-1.12

Shift focus to the following entry.
Consider the compound CC(C(=O)O)c1ccc2c(c1)CC(=O)c1ccccc1S2 (stereo not given) [Zaltoprofen] tested on Saccharomyces cerevisiae BY4741 SeMeCo community; state its z-score of subpopulation abundance.
-0.59

---

Test system: Saccharomyces cerevisiae BY4741 SeMeCo community
assay overview: z-score of subpopulation abundance vs DMSO median, subpopulation auxotrophic for HL; higher = larger share of this subpopulation than in DMSO controls
experimental setup: 10 µM; 24 h; SM minimal medium; subpopulation (auxotrophy): HL
Where a name gives a salt, the structure may show the parent alone.
Threshold rule: z-score of subpopulation abundance greater than or equal to -0.6 is Yes; below that, No.

Would you please look over these solved cases?
compound	test system	answer label
N=C(N)NC(=O)c1nc(Cl)c(N)nc1N [Amiloride HCl]	Saccharomyces cerevisiae BY4741 SeMeCo community	Yes
C=CC[N+]1([C@H]2C[C@H]3[C@@H]4CC[C@H]5C[C@H](O)[C@@H](N6CCOCC6)C[C@]5(C)[C@H]4CC[C@]3(C)[C@H]2OC(C)=O)CCCC1 [Rocuronium Bromide]	Saccharomyces cerevisiae BY4741 SeMeCo community	No
C[C@H]1c2cccc(O)c2C(O)=C2C(=O)[C@]3(O)C(O)=C(C(N)=O)C(=O)[C@@H](N(C)C)[C@@H]3[C@@H](O)[C@@H]21 [Doxycycline monohydrate]	Saccharomyces cerevisiae BY4741 SeMeCo community	Yes
CC[N+](CC)(CC)CCOc1cccc(OCC[N+](CC)(CC)CC)c1OCC[N+](CC)(CC)CC [Gallamine Triethiodide]	Saccharomyces cerevisiae BY4741 SeMeCo community	No
Cc1nccn1CC1CCc2c(c3ccccc3n2C)C1=O (stereo not given) [Ondansetron HCl]	Saccharomyces cerevisiae BY4741 SeMeCo community	No
CN[C@@H]1[C@@H](O[C@H]2O[C@H](CO)[C@@H](N)[C@H](O)[C@H]2O)OC2C[C@@H](N)[C@@H](O[C@H]3[C@H](O)[C@@H](O)[C@H](N)C[C@@H]3N)OC2[C@@H]1O (stereo not given in full) [Apramycin Sulfate]	Saccharomyces cerevisiae BY4741 SeMeCo community	Yes
Oc1c(I)cc(Cl)c2cccnc12	Saccharomyces cerevisiae BY4741 SeMeCo community	Yes
N#Cc1ccc2[nH]cc(CCCCN3CCN(c4ccc5oc(C(N)=O)cc5c4)CC3)c2c1 [Vilazodone HCl]	Saccharomyces cerevisiae BY4741 SeMeCo community	Yes

Check the entry "O=C1[C@@H]2[C@H]3CC[C@H](C3)[C@@H]2C(=O)N1C[C@@H]1CCCC[C@H]1CN1CCN(c2nsc3ccccc23)CC1" : does z-score of subpopulation abundance equal or exceed -0.6?
Yes

Check the entry "CC(=O)OCC1=C(C(=O)O)N2C(=O)[C@@H](NC(=O)CSc3ccncc3)[C@H]2SC1" : does z-score of subpopulation abundance equal or exceed -0.6?
Yes

Check the entry Cc1ncc([N+](=O)[O-])n1CCOC(=O)c1ccccc1 [Metronidazole Benzoate] : does z-score of subpopulation abundance equal or exceed -0.6?
No

Check the entry COc1ccc(C2CNC(=O)C2)cc1OC1CCCC1 (stereo not drawn) [S- (+)-Rolipram] : does z-score of subpopulation abundance equal or exceed -0.6?
Yes

Check the entry CCCCOc1cc(C(=O)OCCN(CC)CC)ccc1N [Oxybuprocaine HCl] : does z-score of subpopulation abundance equal or exceed -0.6?
Yes

Check the entry CO/N=C(\C(=O)N[C@@H]1C(=O)N2C(C(=O)O)=C(CSC(=O)c3ccco3)CS[C@H]12)c1csc(N)n1 [Ceftiofur HCl] : does z-score of subpopulation abundance equal or exceed -0.6?
No

Check the entry N[C@@H]1CCCCN(c2c(F)cc3c(=O)c(C(=O)O)cn(C4CC4)c3c2Cl)C1 [Besifloxacin HCl] : does z-score of subpopulation abundance equal or exceed -0.6?
Yes

---

Tested on: Saccharomyces cerevisiae BY4741 SeMeCo community
assay overview: z-score of subpopulation abundance vs DMSO median, subpopulation auxotrophic for L; higher = larger share of this subpopulation than in DMSO controls
experimental setup: 10 µM; 24 h; SM minimal medium; subpopulation (auxotrophy): L
Threshold rule: z-score of subpopulation abundance greater than or equal to -0.03 is label 1; below that, label 0.

Would you please look over these solved cases?
molecule	answer label
Cc1cccc(N(C)C(=S)Oc2ccc3ccccc3c2)c1 [Tolnaftate]	label 0
COc1ccc(CC2c3cc(OC)c(OC)cc3CC[N+]2(C)CCC(=O)OCCCCCOC(=O)CC[N+]2(C)CCc3cc(OC)c(OC)cc3C2Cc2ccc(OC)c(OC)c2)cc1OC (configuration not stated) [Atracurium Besylate]	label 1
NC[C@H]1O[C@H](O[C@H]2[C@H](O)[C@@H](O[C@H]3O[C@H](CO)[C@@H](O)[C@H](N)[C@H]3O)[C@H](N)C[C@@H]2N)[C@H](N)C[C@@H]1O	label 0
CCCCCCCCCCCC(=O)O	label 0
CC(=O)O[C@]1(C(C)=O)CC[C@H]2[C@@H]3C[C@H](C)C4=CC(=O)CC[C@]4(C)[C@H]3CC[C@@]21C [Medroxyprogesterone acetate]	label 0

Turning now to a further record.
Check the entry "Cc1ccc(-c2ncc(Cl)cc2-c2ccc(S(C)(=O)=O)cc2)cn1" : does z-score of subpopulation abundance equal or exceed -0.03?
label 1

---

Test system: Saccharomyces cerevisiae BY4741 SeMeCo community
assay overview: z-score of subpopulation abundance vs DMSO median, subpopulation auxotrophic for M; higher = larger share of this subpopulation than in DMSO controls
experimental setup: 10 µM; 24 h; SM minimal medium; subpopulation (auxotrophy): M
Counter-ions that a name gives are not always drawn.
property label: z-score of subpopulation abundance

Field: example entries. Status: answers known.
compound	z-score of subpopulation abundance
CC(=O)OCC(CCn1cnc2cnc(N)nc21)COC(C)=O	-0.23
CC1(C)S[C@@H]2[C@H](NC(=O)Cc3ccccc3)C(=O)N2[C@H]1C(=O)O [Penicillin G Sodium]	-0.8
COc1ccc2[nH]c([S+]([O-])Cc3ncc(C)c(OC)c3C)nc2c1 (stereo not drawn) [Omeprazole]	-0.74
CCC(=O)NS(=O)(=O)c1ccc(-c2c(-c3ccccc3)noc2C)cc1 [Parecoxib Sodium]	0.75
CCC1(C)CC(=O)NC1=O (stereo not drawn) [Ethosuximide]	-0.27

Please give measured z-score of subpopulation abundance of the following entry: NNc1nncc2ccccc12 [Hydralazine HCl]
-0.11

Please give measured z-score of subpopulation abundance of the following entry: O=C1CN2Cc3c(ccc(Cl)c3Cl)N=C2N1 [Anagrelide HCl]
-0.78

Please give measured z-score of subpopulation abundance of the following entry: CC(C[N+](C)(C)C)OC(N)=O (stereo not drawn) [Bethanechol chloride]
-0.79

Please give measured z-score of subpopulation abundance of the following entry: CO/N=C(\C(=O)N[C@@H]1C(=O)N2C(C(=O)O)=C(CSC(=O)c3ccco3)CS[C@H]12)c1csc(N)n1 [Ceftiofur HCl]
-0.14

Please give measured z-score of subpopulation abundance of the following entry: "Nc1cc(C(Cl)=C(Cl)Cl)c(S(N)(=O)=O)cc1S(N)(=O)=O"
-0.33

Please give measured z-score of subpopulation abundance of the following entry: OC(CCN1CCCCC1)(c1ccccc1)C1CCCCC1 (stereo not drawn) [Trihexyphenidyl hydrochloride]
0.49

Please give measured z-score of subpopulation abundance of the following entry: COc1cc(NC(C)CCCN)c2ncccc2c1 (stereo not drawn) [Primaquine Diphosphate]
1.17

Please give measured z-score of subpopulation abundance of the following entry: CCCCOc1cc(C(=O)NCCN(CC)CC)c2ccccc2n1 [Dibucaine HCl]
-0.03

Please give measured z-score of subpopulation abundance of the following entry: N/C(=N\N=C\c1ccc(Cl)cc1)N/N=C/c1ccc(Cl)cc1 [Robenidine Hydrochoride]
9.06

Please give measured z-score of subpopulation abundance of the following entry: "C[C@@H](O)[C@H]1C(=O)N2C(C(=O)OCOC(=O)C(C)(C)C)=C(SC3CN(C4=NCCS4)C3)[C@H](C)[C@H]12"
-0.17

Please give measured z-score of subpopulation abundance of the following entry: CCOc1ccc2ccccc2c1C(=O)N[C@@H]1C(=O)N2[C@@H]1SC(C)(C)[C@@H]2C(=O)O [Nafcillin Sodium]
-0.26

Please give measured z-score of subpopulation abundance of the following entry: COCCCN1CCC(NC(=O)c2cc(Cl)c(N)c3c2OCC3)CC1 [Prucalopride]
0.21

Please give measured z-score of subpopulation abundance of the following entry: N[C@@H]1CCCCN(c2c(F)cc3c(=O)c(C(=O)O)cn(C4CC4)c3c2Cl)C1 [Besifloxacin HCl]
-0.11

Please give measured z-score of subpopulation abundance of the following entry: "COc1ccc2cc(CCC(C)=O)ccc2c1"
0.05

Please give measured z-score of subpopulation abundance of the following entry: CC[N+](CC)(CC)CCOc1cccc(OCC[N+](CC)(CC)CC)c1OCC[N+](CC)(CC)CC [Gallamine Triethiodide]
0.42

Please give measured z-score of subpopulation abundance of the following entry: CCC(C)C1OC2(CCC1C)CC1CC(CC=C(C)C(OC3CC(OC)C(OC4CC(OC)C(O)C(C)O4)C(C)O3)C(C)C=CC=C3COC4C(O)C(C)=CC(C(=O)O1)C34O)O2 (stereo not drawn)
-0.12

Please give measured z-score of subpopulation abundance of the following entry: "Cc1cc(-n2c(=O)[nH]c(=O)n(C)c2=O)ccc1Oc1ccc(SC(F)(F)F)cc1"
-0.11

Please give measured z-score of subpopulation abundance of the following entry: "Clc1ccccc1C(c1ccccc1)(c1ccccc1)n1ccnc1"
4.9

Please give measured z-score of subpopulation abundance of the following entry: CC1(C)S[C@@H]2[C@H](NC(=O)[C@H](N)c3ccc(O)cc3)C(=O)N2[C@H]1C(=O)O [Amoxicillin trihydrate]
0.05

Please give measured z-score of subpopulation abundance of the following entry: O=C([O-])CC(O)(CC(=O)[O-])C(=O)[O-].O=C([O-])CC(O)(CC(=O)[O-])C(=O)[O-].[Bi+3].[K+].[K+].[K+].[K+].[K+] [Bismuth Subcitrate Potassium]
-3.84

Please give measured z-score of subpopulation abundance of the following entry: CC1CCc2c(N3CCC(O)CC3)c(F)cc3c(=O)c(C(=O)O)cn1c23 (stereo not drawn)
0.33
